Data provenance: ChEMBL document CHEMBL1145334

Answer each item with its documented pIC50.
Target: Acetylcholinesterase (Torpedo californica, UniProt P04058)
Sequence (P04058 whole entry): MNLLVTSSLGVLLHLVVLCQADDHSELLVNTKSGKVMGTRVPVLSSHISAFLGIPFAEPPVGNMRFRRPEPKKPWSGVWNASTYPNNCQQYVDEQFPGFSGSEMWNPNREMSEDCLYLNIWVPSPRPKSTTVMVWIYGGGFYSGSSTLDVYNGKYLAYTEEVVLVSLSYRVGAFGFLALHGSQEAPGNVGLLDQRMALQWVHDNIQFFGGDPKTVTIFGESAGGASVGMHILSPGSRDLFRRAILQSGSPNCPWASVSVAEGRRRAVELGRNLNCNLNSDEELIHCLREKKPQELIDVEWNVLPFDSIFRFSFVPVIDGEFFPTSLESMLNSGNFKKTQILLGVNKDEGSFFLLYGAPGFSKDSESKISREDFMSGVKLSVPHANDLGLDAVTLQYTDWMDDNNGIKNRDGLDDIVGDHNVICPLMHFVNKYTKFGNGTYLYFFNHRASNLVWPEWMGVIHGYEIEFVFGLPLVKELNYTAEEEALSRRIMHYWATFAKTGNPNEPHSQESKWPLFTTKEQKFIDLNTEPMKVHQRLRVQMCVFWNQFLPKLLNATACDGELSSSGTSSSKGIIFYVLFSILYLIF
Where a name gives a salt, the structure may show the parent alone.
One number for each entry, as −log10 of the molar value.

Completed entries (count: 4):
compound	pIC50
CNC(=O)Oc1ccc2c(c1)[C@]1(C)CC[N+](C)([O-])[C@@H]1N2C (stereo partly drawn)	5.76
Cc1cccc(NC(=O)Oc2ccc3c(c2)[C@]2(C)CC[N+](C)([O-])[C@@H]2N3C)c1 (stereo partly drawn)	5.29
CCc1cccc(NC(=O)Oc2ccc3c(c2)[C@]2(C)CC[N+](C)([O-])[C@@H]2N3C)c1 (stereo partly drawn)	5.01
CC(C)c1ccccc1NC(=O)Oc1ccc2c(c1)[C@]1(C)CC[N+](C)([O-])[C@@H]1N2C (stereo partly drawn)	5.08

Hi team, please reply with pIC50 for each item in this list.
1. CCCc1ccccc1NC(=O)Oc1ccc2c(c1)[C@]1(C)CC[N+](C)([O-])[C@@H]1N2C (stereo partly drawn)
2. Cc1ccccc1NC(=O)Oc1ccc2c(c1)[C@]1(C)CC[N+](C)([O-])[C@@H]1N2C (stereo partly drawn)

a:
1: 5.07; 2: 5.39

Provide the reported pIC50 of each entry below, same order.
1. CCN(C)C(=O)Oc1cccc([C@H](C)N(C)C)c1 [RIVASTIGMINE TARTRATE]
2. Cc1cccc(C)c1NC(=O)Oc1ccc2c(c1)[C@]1(C)CC[N+](C)([O-])[C@@H]1N2C (stereo partly drawn)

a:
1: 3.73; 2: 3.73
